- Test system: MDR Salmonella typhimurium
- protocol-description: Growth of clinical strain MDR S. typhimurium
- Type: cell-based
- assay-context: 10 μM
quantity-name: growth inhibition of MDR S. typhimurium

The examples below pair each entry with its known result.
substance | growth inhibition of MDR S. typhimurium
KFFKFFKFFK -O-taatcatggtat (antisense TAATCATGGTAT; all peptide nucleic acid (PNA); (KFF)3K cell-penetrating peptide joined to the N-terminus through an O-linker) [α-folC, 12-mer antisense PNA centered on start codon of folC, O-linker to (KFF)3K] | inhibited
KFFKFFKFFK-O-ttcgacatcaac (antisense TTCGACATCAAC; PNA, (KFF)3K peptide via O-linker, chemistry not fully specified) [α-gyrB, 12-mer antisense PNA centered on start codon of gyrB, O-linker to (KFF)3K] | inhibited
KFFKFFKFFK -O-gctttcattccg (antisense GCTTTCATTCCG; all peptide nucleic acid (PNA); (KFF)3K cell-penetrating peptide joined to the N-terminus through an O-linker) [α-lexA, 12-mer antisense PNA centered on start codon of lexA, O-linker to (KFF)3K] | inhibited
KFFKFFKFFK-O-ttgccattttct (antisense TTGCCATTTTCT; all peptide nucleic acid (PNA); (KFF)3K cell-penetrating peptide joined to the N-terminus through an O-linker) [α-rpsD, 12-mer antisense PNA centered on start codon of rpsD, O-linker to (KFF)3K] | inhibited
KFFKFFKFFK -O-tcaaacattgtc (antisense TCAAACATTGTC; all peptide nucleic acid (PNA); (KFF)3K cell-penetrating peptide joined to the N-terminus through an O-linker) [α-ffh, 12-mer antisense PNA centered on start codon of ffh, O-linker to (KFF)3K] | inhibited

Turning now to a further record.
Q: Endpoint output: growth inhibition of MDR S. typhimurium of KFFKFFKFFK-O-cacctgcaagag (antisense CACCTGCAAGAG; all peptide nucleic acid (PNA); (KFF)3K cell-penetrating peptide joined to the N-terminus through an O-linker) [α-fnrS] . Value?
A: inhibited
